A compilation of IC50 values for Type-1 angiotensin II receptor A (Rattus norvegicus) from the published literature.
endpoint-label: IC50 (µM)

Record excerpt, results attached:
Please report the recorded IC50 for CCCCc1ncc(/C=C2/C(=O)NC(=O)N2C)n1Cc1ccc(-c2ccccc2-c2nnn[nH]2)cc1 .
0.00551

Please report the recorded IC50 for CCc1nc2c(C)cc(C)nc2n1Cc1ccc2nn(-c3ccccc3-c3nnn[nH]3)c(Br)c2c1 .
0.0011

Please report the recorded IC50 for CCCCc1ncc(/C=C2/C(=O)N(CCCC)C(=O)N2Cc2nccn2Cc2ccccc2)n1Cc1ccc(C(=O)OC)cc1 .
0.135

Please report the recorded IC50 for CCCCc1ncc(C=C2C(=O)N(CC(=O)OC)c3ccccc32)n1Cc1ccc(-c2nn[nH]n2)cc1 .
0.025

Please report the recorded IC50 for CCCc1nc2c(C)cc(-c3nc4ccccc4n3C)cc2n1Cc1ccc(-c2ccccc2S(=O)(=O)NC(=O)NC2CCCCC2)cc1 .
0.31

Please report the recorded IC50 for CCCCc1nc([S+]([O-])c2ccccc2)c(C(=O)O)n1Cc1ccc(-c2ccccc2C(=O)O)cc1 (stereo not drawn) .
0.0102

1. CCCCc1ncc(/C=C2/C(=O)N(CCCC)C(=O)N2Cc2cccc[n+]2[O-])n1Cc1ccc(C(=O)OC)cc1
2. CCOc1nc2ccc(-c3cn(C(C)C)cn3)cc2n1Cc1ccc(-c2ccccc2C(=O)O)cc1
3. CCCCc1ncc(/C=C2/C(=O)N(CCCC)C(=O)N2Cc2csc(C)n2)n1Cc1ccc(C(=O)O)cc1
4. CCCCc1nc(Cl)c(CO)n1Cc1ccc(NC(=O)[C@H](Cc2ccc(O)cc2)NC(=O)OC(C)(C)C)cc1
Endpoint returns the given compounds ordered by ascending IC50. Labels, requested order.
3, 2, 1, 4
(3: 0.00121 µM, 2: 0.01 µM, 1: 0.26 µM, 4: 3 µM)

1. CCCCc1nc(SCc2ccccc2)c(CO)n1Cc1ccc(-c2ccccc2C(=O)O)cc1
2. CCCc1nc2c(C)cc(-c3nc4ccccc4n3C)cc2n1Cc1ccc2nc(-c3ccccc3)n(CC(=O)O)c2c1
3. CCCCc1nc(Cl)c(CO)n1Cc1ccc(NC(=O)[C@H](CC(=O)OC(C)(C)C)NC(=O)OCc2ccccc2)cc1
Endpoint returns the given compounds ordered by ascending IC50. Labels, requested order.
1, 2, 3
(1: 0.0058 µM, 2: 0.023 µM, 3: 4 µM)

---

pIC50: −log10 of the molar value.
A compilation of pIC50 values for Type-1 angiotensin II receptor A (Rattus norvegicus, UniProt P25095) from the published literature.
endpoint-label: pIC50

Please report the recorded pIC50 for CCCCc1nc2c(n1Cc1ccc(-c3ccccc3S(=O)(=O)NC(=O)NCCC)cc1)C(=NO)CCS2 .
8.28

Please report the recorded pIC50 for CCCCc1ncc(/C=C2\NC(=O)N(CCCC(F)(F)F)C2=O)n1Cc1ccc(C(=O)OC)cc1 .
5.84

Please report the recorded pIC50 for CCCc1nc2c(C)cc(NC(=C(C#N)C#N)N(C)C)cc2n1Cc1ccc(-c2ccccc2C(=O)O)cc1 .
7.19

Please report the recorded pIC50 for CCCCc1cn(Cc2ccc(-c3ccccc3C(=O)O)cc2)c2cc(C(=O)N3CCCC3)ccc2c1=O .
7.10

Please report the recorded pIC50 for CCc1nc2c(C)cc(C)nc2n1Cc1ccc2nn(-c3ccccc3-c3nnn[nH]3)c(Cl)c2c1 .
9.10

Please report the recorded pIC50 for CCCCc1ncc(/C=C2\C(=O)N(CCCC)C(=O)N2Cc2csc(C)n2)n1Cc1ccc(C(=O)O)cc1 .
8.58

Please report the recorded pIC50 for CCCCc1nc(S(=O)(=O)c2ccccc2)c(C(=O)O)n1Cc1ccc(-c2ccccc2C(=O)O)cc1 .
7.33

Please report the recorded pIC50 for CCCc1ncc(C=C2C(=O)N(C(=O)NC)c3ccccc32)n1Cc1ccc(C(=O)OC)cc1 .
6.21

Please report the recorded pIC50 for CCCCc1nc2cscc2n1Cc1ccc(-c2ccccc2C(=O)O)cc1 .
6.10

Please report the recorded pIC50 for CCCCc1ncc(C=C2C(=O)N(CC#N)c3ccccc32)n1Cc1ccc(C(=O)OC)cc1 .
6.65

1. CCCCc1nc(Cl)c(CO)n1Cc1ccc2nn(-c3ccccc3C(=O)O)c(Br)c2c1
2. CCCCc1nc2ccccc2n1Cc1ccc(C(=O)O)cc1
Could you please tell me which of these two has the higher pIC50: 1 or 2 ? Indicate your choice by writing its label.
1
(1: 8.37, 2: 5.84)

I. CCCCc1nc(Cl)c(C(=O)O)n1Cc1ccc2nn(-c3ccccc3C(=O)O)c(Br)c2c1
II. CCCCc1ncc(C=C2C(=O)N(CCCC)c3ccccc32)n1Cc1ccc(C(=O)O)cc1Cl
III. CCCc1cn2c(C(O)c3ccc(-c4ccccc4C(=O)O)cc3)ccc(C)c2n1 (racemic)
Endpoint returns the given compounds ordered by ascending pIC50. Labels, requested order.
III, II, I
(III: 6.38, II: 7.28, I: 8.60)

a. CCCCc1nc(Cl)c(C=O)n1Cc1ccc2nn(-c3ccccc3C(=O)O)c(Br)c2c1
b. CCc1cn2c(C(OC(C)=O)c3ccc(-c4ccccc4C(=O)O)cc3)ccc(C)c2n1 (racemic)
Could you please tell me which of these two has the higher pIC50: a or b ? Indicate your choice by writing its label.
a
(a: 7.72, b: 7.52)
